# Test system: BDF1 mice, s.c. Lewis lung carcinoma, T/C %
# EXPERIMENT: NCI In Vivo Anticancer Drug Screen. Data for tumor model Lewis Lung Carcinoma (subcutaneous) in B6D2F1 (BDF1) mice
# ASSAY SETUP: endpoint: median survival time; dose: 50.0 mg/kg/injection; schedule: Q01DX004 (ip); vehicle: saline
Results filed as inconclusive are left out. How the source made its calls: active means survival T/C of 150% or more; inactive means T/C below 125% in these data.
Write down the outcome that applies. Available outcomes: active, inactive

>>> print(df.to_string())
                                   compound                            assayed_target  classification
0  CCOC(=O)CC(NC(=O)CP(=O)(OCC)OCC)C(=O)OCC (centres undefined)  BDF1 mice, s.c. Lewis lung carcinoma, T/C %        inactive
1  O=C(O)CC(NC(=O)CP(=O)(O)O)C(=O)O (centres undefined)  BDF1 mice, s.c. Lewis lung carcinoma, T/C %          active
2  CCOP(=O)(CC(=O)NC(CC(=O)OC)C(=O)OC)OCC (centres undefined)  BDF1 mice, s.c. Lewis lung carcinoma, T/C %        inactive

Please find the next compound below.
## Input Check the results log: what was the call for O=P1(N(CCCl)CCCl)NCCCO1 (centres undefined) ?
## Output active

----------
# System: BDF1 mice, s.c. Lewis lung carcinoma, T/C %
# EXPERIMENT: NCI In Vivo Anticancer Drug Screen. Data for tumor model Lewis Lung Carcinoma (subcutaneous) in B6D2F1 (BDF1) mice
# ASSAY SETUP: endpoint: median survival time; dose: 200.0 mg/kg/injection; schedule: Q01DX009 (ip); vehicle: other; higher = longer survival
Records with an inconclusive call do not appear.
Catalogue of T/C readings, one per entry.

Before answering, review these 3 worked examples.
In [3]: df
Out[3]:
                                   molecule                            assayed_target  endpoint    endpoint_value
0                       N=C(N)Sc1cc(O)ccc1O  BDF1 mice, s.c. Lewis lung carcinoma, T/C %       T/C   93 % of control
1  C=C(C)C(=O)OCCN(C)C (tested in a mixture with another compound)  BDF1 mice, s.c. Lewis lung carcinoma, T/C %       T/C  108 % of control
2  COc1ccc(CN(CCOC(=O)c2ccc(OC)cc2)CCN(CCOC(=O)c2ccc(OC)cc2)Cc2ccc(OC)cc2)cc1  BDF1 mice, s.c. Lewis lung carcinoma, T/C %       T/C  100 % of control

With those in mind, consider the next molecule.
## Input Value lookup for T/C; key = "Cc1nn(-c2ccccc2)c(N)c1C#N"
## Output 100 % of control

----------
# System: BDF1 mice, s.c. Lewis lung carcinoma, T/C %
# EXPERIMENT: NCI In Vivo Anticancer Drug Screen. Data for tumor model Lewis Lung Carcinoma (subcutaneous) in B6D2F1 (BDF1) mice
# ASSAY SETUP: endpoint: median survival time; dose: 400.0 mg/kg/injection; schedule: Q01DX009 (ip); vehicle: saline with Tween-80; higher = longer survival
Records with an inconclusive call do not appear.
Catalogue of T/C readings, one per entry.

>>> print(df.to_string())
                                   molecule                            assayed_target    endpoint_value
0                            Nc1n[nH]c(N)n1  BDF1 mice, s.c. Lewis lung carcinoma, T/C %   95 % of control
1                           Nc1nc(N)nc(N)n1  BDF1 mice, s.c. Lewis lung carcinoma, T/C %   98 % of control
2  CCSC(=O)N1c2ccc(OC)cc2C=CC1C#N (stereo not given)  BDF1 mice, s.c. Lewis lung carcinoma, T/C %  108 % of control
3         CCN(CC)c1nc(N(CC)CC)nc(N(CC)CC)n1  BDF1 mice, s.c. Lewis lung carcinoma, T/C %   89 % of control

## Input Value lookup for T/C; key = "O=C(NO)c1ccccc1O"
## Output 113 % of control
